B1: mRNA-splicing (parent)
chain: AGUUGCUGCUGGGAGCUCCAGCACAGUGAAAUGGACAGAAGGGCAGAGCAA

variants of: B1; assay: exon inclusion enrichment index; higher = more inclusion; WT1 exon 5 minigene, HEK293
Outcome label depends on exon inclusion enrichment index relative to 0.7: at/above gives true (1), below gives false (0).

Known results for variants:
A29C A30C = false (0)
G5A C6G U7G C9A C16U U17G = false (0)
G5A U7C G8A U10C G34U = false (0)
G5A C6U U7A G8U C9A C18A C19U = false (0)
G5C C6G U7C U10C C18G = true (1)
G5A C6G U7G C9A A45C = false (0)
U3C U4G G5U G8U C9U = false (0)
U4C G5U C6G U7G C9A = false (0)

Kindly determine if exon inclusion enrichment index recorded for U4G G5C C6G U7G C9A is above or exactly 0.7.
false (0)

Record G5C C6U G8C C9U U10C G48C ; criterion: exon inclusion enrichment index no lower than 0.7. Met?
true (1)

Test whether the variant G5A C6G U7G C9A C16A U17A records exon inclusion enrichment index of 0.7 or higher.
false (0)

Does exon inclusion enrichment index meet or surpass 0.7 for G5U G8U C9U G38A ?
false (0)

Assess whether reported exon inclusion enrichment index for G5U G8U C9U C22G A23G sits at 0.7 or higher.
false (0)

Can G5A C6G U7G C9A A23U C24A be said to have exon inclusion enrichment index at or above 0.7?
false (0)

Quick check: does G5C C6G U7C U10C A29C A30U have exon inclusion enrichment index greater than or equal to 0.7?
true (1)

In plain terms: is recorded exon inclusion enrichment index at least 0.7 for G5A C6U U7C G8A C9A ?
false (0)

Record G5A C6U U7A G8U C9A G13U A14C ; criterion: exon inclusion enrichment index no lower than 0.7. Met?
false (0)

Decide: exon inclusion enrichment index of C6A U7C C9A U10C C24U >= 0.7?
true (1)

Check if exon inclusion enrichment index >= 0.7 (inclusive). Item: G5C C6G U7C U10A
true (1)

# check: exon inclusion enrichment index of G5A U7C G8A U10C G21U C22U is greater than or equal to 0.7
true (1)

Please check the record C6A U7A C9A U10A C19U A20C and state if its exon inclusion enrichment index is at or above 0.7.
false (0)

Identify whether the reported exon inclusion enrichment index of the following variant is 0.7 or greater: G5A C6U U7A G8U C9A G21U C22A
false (0)
